Measured values drawn from paper PMC8829947 for this set.

Assay: Zn2+ affinity by competition with colorimetric PAR assay
Format: binding
Conditions: read-out: Kd,Zn2; PAR 100 μM, ZnSO4 10 μM, pH 7.5, 3 h at 25 °C
pKd: −log10 of the molar value.
Lab note: compare pKd against 8. Equal or greater, write YES. Smaller, write NO.

# example entries with known answers
N[C@@H](CN[C@@H](CNC(CS)C(=O)O)C(=O)O)C(=O)O (stereo in doubt) [Compound 12] | YES
N[C@@H](CN[C@@H](CN[C@@H](CC(=O)O)C(=O)O)C(=O)O)CSCCO | NO
Cc1ccc(SC[C@@H](N)CN[C@@H](CN[C@@H](CC(=O)O)C(=O)O)C(=O)O)cc1 | YES

**Query** Decide: pKd of `N[C@@H](CN[C@@H](CN[C@@H](Cc1ccc(O)cc1)C(=O)O)C(=O)O)C(=O)O` >= 8?
**Result** YES
